assay: Pharmacokinetic properties in vivo in female Balb/c Nude mice; parameters: species or system mouse; details: mouse, plasma, 1 mg/kg IV, read-out: Vdss
measured_metric: Vd (L/kg)

[[record]]
compound = "Cc1cnn(C)c1-c1cc(N2CCOC[C@H]2C)nc(-c2cc(CO)cc3[nH]ccc23)n1 [WX42]"
measured_metric = "Vd"
measurement_unit = "L/kg"
numeric_readout = 2.21

[[record]]
compound = "Cc1nnc(C)n1-c1cc(N2CCOC[C@H]2C)nc(-c2cccc3[nH]ccc23)n1 [WX45]"
measured_metric = "Vd"
measurement_unit = "L/kg"
numeric_readout = 2.59

[[record]]
compound = "Cc1nnn(C)c1-c1cc(N2CCOC[C@H]2C)nc(-c2ccnc3[nH]ccc23)n1 [WX34]"
measured_metric = "Vd"
measurement_unit = "L/kg"
numeric_readout = 3.72

[[record]]
compound = "C[C@@H]1COCCN1c1cc(-c2ccnn2C)nc(-c2ccnc3[nH]ccc23)n1 [WX15]"
measured_metric = "Vd"
measurement_unit = "L/kg"
numeric_readout = 2.21


---

experiment: Pharmacokinetic properties in vivo in female Balb/c Nude mice; set-up: species or system mouse; conditions: mouse, plasma, 1 mg/kg IV
measured_metric: AUC(0-t)

[[record]]
compound = "Cc1nnc(C)n1-c1cc(N2CCOC[C@H]2C)nc(-c2cccc3[nH]ccc23)n1 [WX45]"
result = "0.88 µM·h"

[[record]]
compound = "C[C@@H]1COCCN1c1cc(-c2ccnn2C)nc(-c2ccnc3[nH]ccc23)n1 [WX15]"
result = "0.905 µM·h"

[[record]]
compound = "Cc1cnn(C)c1-c1cc(N2CCOC[C@H]2C)nc(-c2cc(CO)cc3[nH]ccc23)n1 [WX42]"
result = "1.09 µM·h"

[[record]]
compound = "Cc1nnn(C)c1-c1cc(N2CCOC[C@H]2C)nc(-c2ccnc3[nH]ccc23)n1 [WX34]"
result = "0.787 µM·h"


---

assay: Pharmacokinetic properties in vivo in female Balb/c Nude mice; set-up: species or system mouse; details: mouse, plasma, 10 mg/kg oral gavage
half-life by entry:
measured_metric: half-life (h)

[[record]]
query_smiles = "Cc1nnc(C)n1-c1cc(N2CCOC[C@H]2C)nc(-c2cccc3[nH]ccc23)n1"
measured_metric = "half-life"
numeric_readout = 1.69

[[record]]
query_smiles = "C[C@@H]1COCCN1c1cc(-c2ccnn2C)nc(-c2ccnc3[nH]ccc23)n1"
measured_metric = "half-life"
numeric_readout = 1.23

[[record]]
query_smiles = "Cc1nnn(C)c1-c1cc(N2CCOC[C@H]2C)nc(-c2ccnc3[nH]ccc23)n1"
measured_metric = "half-life"
numeric_readout = 1.16

[[record]]
query_smiles = "Cc1cnn(C)c1-c1cc(N2CCOC[C@H]2C)nc(-c2cc(CO)cc3[nH]ccc23)n1"
measured_metric = "half-life"
numeric_readout = 2.02


---

assay: Pharmacokinetic properties in vivo in female Balb/c Nude mice; design: species or system mouse; conditions: mouse, plasma, 1 mg/kg IV
measured_metric: half-life (h)

[[record]]
compound = "C[C@@H]1COCCN1c1cc(-c2ccnn2C)nc(-c2ccnc3[nH]ccc23)n1 [WX15]"
measured_metric = "half-life"
numeric_readout = 0.78

[[record]]
compound = "Cc1nnn(C)c1-c1cc(N2CCOC[C@H]2C)nc(-c2ccnc3[nH]ccc23)n1 [WX34]"
measured_metric = "half-life"
numeric_readout = 1.22

[[record]]
compound = "Cc1cnn(C)c1-c1cc(N2CCOC[C@H]2C)nc(-c2cc(CO)cc3[nH]ccc23)n1 [WX42]"
measured_metric = "half-life"
numeric_readout = 2.57

[[record]]
compound = "Cc1nnc(C)n1-c1cc(N2CCOC[C@H]2C)nc(-c2cccc3[nH]ccc23)n1 [WX45]"
measured_metric = "half-life"
numeric_readout = 0.99

